- test_description: Toxicity data (LD50) of tetracyclines and Tri-tetracyclines in mice
- run_conditions: mouse, in vivo, oral

{"columns": ["compound", "LD50, mg/kg"],
 "data": [
  ["CN(C)[C@@H]1C(=O)C(C(N)=O)=C(O)[C@@]2(O)C(=O)C3=C(O)c4c(O)cccc4[C@@](C)(O)[C@H]3[C@H](O)[C@@H]12 [OTC, 5-hydroxytetracycline]", 2500]
]}
